Assay: PTX content in murine blood and peritoneal cavity after IP dosing
Assay type: in vivo
Settings: female, FVB, mouse, peritoneal lavage (PBS wash of peritoneal cavity); mice, IP 5 mg/kg, 3 hours post dosing
observedProperty: concentration at 3 h
Could you kindly put the unit after your number?

*Q* Complete the entry with concentration at 3 h for CC(=O)O[C@H]1C(=O)[C@@]2(C)[C@H]([C@H](OC(=O)c3ccccc3)[C@]3(O)C[C@H](OC(=O)[C@H](O)[C@@H](NC(=O)c4ccccc4)c4ccccc4)C(C)=C1C3(C)C)[C@]1(OC(C)=O)CO[C@@H]1C[C@@H]2O
*A* 4500 ng/mL

Cited source: patent US20170266123A1
